# Experimental target: ATX (Homo sapiens (Human), UniProt Q13822)
# Measurement description: ATX enzyme inhibition assay (Amplex UltraRed/choline oxidase/HRP, 16:0 Lyso PC substrate)
# Type: biochemical
# Test parameters: assay buffer pH 8.5; read-out: IC50 (nM) pH 8.5
Field: IC50. Provide a value for each of the compounds that follow.
Give just the numeric value; nM need not be written.

Give IC50 for "CN(c1nc(-c2ccc(F)cc2)c(C#N)s1)c1c2c(nc3ccc(N4CCN(S(C)(=O)=O)C[C@H]4CO)cc13)CCC2" tested on ATX (Homo sapiens (Human), UniProt Q13822).
58.8

Give IC50 for CN(c1nc(-c2ccc(F)cc2)c(C#N)s1)c1c2c(nc3c(F)cc(N4CCN(CC(=O)N5CC(C)(O)C5)CC4)cc13)C(O)CC2 (centres unmarked) tested on ATX (Homo sapiens (Human), UniProt Q13822).
16.2

Give IC50 for C[C@@H]1CN(CC(=O)N2CC(O)C2)CCN1c1cc(F)c2nc3c(c(N(C)c4nc(-c5ccc(F)cc5)c(C#N)s4)c2c1)CC[C@@H]3O (single isomer, unassigned) tested on ATX (Homo sapiens (Human), UniProt Q13822).
18.3

Give IC50 for CN(c1nc(-c2ccc(F)cc2)c(C#N)s1)c1c2c(nc3c(F)cc(N4CC5(CN(C(=O)[C@@H]6COC[C@H]6O)C5)C4)cc13)[C@H](O)CC2 (single isomer, unassigned) tested on ATX (Homo sapiens (Human), UniProt Q13822).
17

Give IC50 for CN(c1nc(-c2ccc(F)cc2)c(C#N)s1)c1c2c(nc3c(F)cc(N4CC5(CN(C(=O)C6CCOCC6)C5)C4)cc13)C(O)CC2 (centres unmarked) tested on ATX (Homo sapiens (Human), UniProt Q13822).
17.3

Give IC50 for C[C@@H]1CN(c2cc(F)c3nc4c(c(N(C)c5nc(-c6ccc(F)cc6)c(C#N)s5)c3c2)CC[C@H]4O)CCN1CC(=O)N1CC(O)C1 (single isomer, unassigned) tested on ATX (Homo sapiens (Human), UniProt Q13822).
18.4

Give IC50 for "CN(c1nc(-c2ccc(F)cc2)c(C#N)s1)c1c2c(nc3c(F)cc(N4CC5(CN(C(=O)[C@H]6CCOC6)C5)C4)cc13)CCC2" tested on ATX (Homo sapiens (Human), UniProt Q13822).
36.3

Give IC50 for CN(c1nc(-c2ccc(F)cc2)c(C#N)s1)c1c2c(nc3c(F)cc(N4CC5(CN(C(=O)[C@]6(O)CCOC6)C5)C4)cc13)[C@H](O)CC2 (single isomer, unassigned) tested on ATX (Homo sapiens (Human), UniProt Q13822).
22.9

Give IC50 for CN(c1nc(-c2ccc(F)cc2)c(C#N)s1)c1c2c(nc3c(F)cc(N4CCN(CC(=O)N5CC(C)(O)C5)CC4)cc13)[C@H](O)CC2 (single isomer, unassigned) tested on ATX (Homo sapiens (Human), UniProt Q13822).
14.4

Give IC50 for "CN(c1nc(-c2ccc(F)cc2)c(C#N)s1)c1c2c(nc3c(F)cc(N4CCN(S(C)(=O)=O)[C@@H](CO)C4)cc13)CCC2" tested on ATX (Homo sapiens (Human), UniProt Q13822).
66.5

Give IC50 for "CN(c1nc(-c2ccc(F)cc2)c(C#N)s1)c1c2c(nc3c(F)cc(N4CC5(CN(C(=O)[C@H]6CCOC6)C5)C4)cc13)C(=O)CC2" tested on ATX (Homo sapiens (Human), UniProt Q13822).
30.7
